Assay: yeast display, Sf9 membrane polyspecificity reagent, FACS + sequencing; frameworks hold sequencing errors
Property name: polyreactivity (PSR sort gate)

A selection of reference data follows.
Challenge: What value of polyreactivity (PSR sort gate) has been reported for the following sequence? QVQLVESGGGLVQAGGSLRLSCAASGSTFLRYAMGWYRQAPGKERELVAAISVSGGSTYYADSVKGRFTISRDNAKNTVYLQMNSLKPEDTAVYYCNAVTKFHRRYNYWGQGTQVTVSS
Response given: high polyreactivity

Challenge: Follow-up item: QLQLQESGGGLVQAGGSLRLSCAASGPITRRSTMGWYRQAPRKVRELVTAITRGTNTNYADSVKGRFTISRDNAKNTEYLQMNSLKPEDTAVYYCAAYGVLKPSRGDAVFLRYLGQGTQVTVSS
Response given: low polyreactivity

Challenge: Follow-up item: QVQLVESGGGLVQAGGSLRLSCAASGIIFRYYAMGWYRQAPGKERELVAGISYRGGSTYYADSVKGRFTISRDNAKNTVYLQMNSLKPEDTAVYYCAAVVYPRNYWGQGTQVTVSS
Response given: high polyreactivity

Challenge: Follow-up item: QVHLVESGGGLVQAGGSLRLICAASGRIYTFYAMGWYRQAPGKERHLVAAIRGSSVSTYYADSVKGRFTISRDNAKITVYLQMNSLKPEDTAVYYCAADIYLWNSEYYYWGQGTQVTVSS
Response given: low polyreactivity

Challenge: Follow-up item: QVQLVESGGGLVQAGGSLRLSCAASGRIFDYYAMGWYRQAPGKERELVASISRSGGSTYYADSVKGRFTISRDNAKNTVYLQMNSLKPEDTAVYYCAAVRYITKEFYWGQGTQVTVSS
Response given: high polyreactivity

***
Challenge: What value of polyreactivity (PSR sort gate) has been reported for the following sequence? QVQLVESGGGLVQAGGSLRLSCAASGRTFGQNTMGWYRQAPGIERELVAAINWSGGSTYYADSVKGRFTISRDNAKNTVYLQMNSLKPEDTAVYYCAVRGYWGQGTQVTVSS
Response given: low polyreactivity

Challenge: Follow-up item: QVQLVESGGGLVQAGGSLRLSCAASGFTFRENTMGWYRQAPGKERELVASISWSGGSTYYADSVKGRFTISRDNAKNTVYLQMNSLKPEDTAVYYCAATYAWLSKGYRGMDYWGQGTQVTVSS
Response given: low polyreactivity

---

Assay: yeast display, Sf9 membrane polyspecificity reagent, FACS + sequencing; frameworks hold sequencing errors
Property name: polyreactivity (PSR sort gate)

A selection of reference data follows.
Challenge: What value of polyreactivity (PSR sort gate) has been reported for the following sequence? QVQLVESGGGLVQAGGSLRLSCAASGSIFSVYAMGWYRQAPGTERELVAGITRNGGTTYYADSVKGRFTISRDNAKHTVYLQMNSLKPEDTAVYYCAADNGFPEYGVNRVWSRYDYWGQGTQVTVSS
Response given: low polyreactivity

Challenge: Follow-up item: QVQLVESGGGLVQAGGSLRLSCAASGSIFAKYAMGWYRQAPGKEREFVAAIRASGGRTYYADSVKGRFTISRDNAKNTVYLKMNSLKPEDTAFYYCASDVSYRAGFDYWGQGTQVTVSS
Response given: high polyreactivity

Challenge: Follow-up item: QVQLVESGGGLVQAGGSLRLTCAASGSTFAFYAMGWYRQAPGKERELVAAITLIGGNTYYADSVKGRFTISRDNAKNTVYLQMYSLKPEDTAVYYFAAGGYYVRYPKSWYNYWGQGTQVTVSS
Response given: low polyreactivity

Challenge: Follow-up item: QVQLVESGGGLVQAGGSLRLSCAASGNTFYIYAMGWYRQAPGKERELVAAISRGGGSTYYAESVKGRFTISRDNAMNTVYLQLNSLKPEDTAVYYCAADYYYSRYDYWGQGTQVTVSS
Response given: high polyreactivity

Challenge: Follow-up item: QVQLVESGGGLVQAGGSLRLSCAASGRTFTHYAMGWYRQAPGKERELVAAISSGGGTYYADSVKGRFTISRDNAKNTVYLQMNSLKPEDTAVYYCNADYTNYHDPFRTYGYWGQGTQVTVSS
Response given: low polyreactivity

***
Challenge: What value of polyreactivity (PSR sort gate) has been reported for the following sequence? QVQLVESAGGLVQAGGSLRLSCPASGRIFSIYGMGWYRQAPGKERELVAVISGSVGITYYADSVKGRFTISRDNAKNTVYLQMNSLKPEDTAVYFCNAKVRRRKYDYWGQGTQVTVSS
Response given: high polyreactivity

Challenge: Follow-up item: QVQLVESGGGLVQAGGSLRLSCAASGLTFRGNVMGWYRQAPGKERELVAAISRSGNTYYADSVKGRFTISRDNAKNTVYLQMNSLKPEDTAVYYCAAQSVRWYSSFKYYYWGQGTQVTVSS
Response given: high polyreactivity

Challenge: Follow-up item: HVQLVESGGGLVQAGGSLRLSCAASGITFASYGMGWYRPAPGKDRELVAAISQRGGRTYYADSVKGRFTISRDNAKNTVYLQMNSLKPEDTAVYYCARTVGYRTLLESDSWGQGTQVTVAS
Response given: high polyreactivity

Challenge: Follow-up item: QVQLVESGGGLVQAGGSLRLSCAASGRIIGNNAMGWYRHAPGKERELVATISSRGGSTYYAESVKGRFTISRDNAKNTVYFQMNSLKPEDTAVYYCKAYTTLAYDLDYWGQGTQVTVSS
Response given: high polyreactivity

Challenge: Follow-up item: QVQLVESGGGLVQAGCILRLSCDASGRTFAPYAMGWYRQAPGKAWELVAAITNGGSPSYADSVKGRFTISRDNAKNTVYLEMNSLKREDTAVFYCAADIVSSTDYPFEYWGQGTQVTVSS
Response given: low polyreactivity

Challenge: Follow-up item: QDQLVESGGGLVQAGGSLRISCAASGRIFDYNAMGWYRQAPGKERELVAAITGGGNTTYADSVKGRFTISRDNAKNTVYLQMNSLKPEDTAVYYCAADVVSVYRLSYKPLGYYWGQGTQVTVSS
Response given: low polyreactivity

Source listed as the nanobody polyreactivity screen of Harvey et al. (2022).
